Target: T1, human Claudin 18.2 (CLDN18.2) (human, UniProt P56856-2 1-261)
T1 construct: whole, on cells; recombinantly expressed on CHO, HEK293, NCI-N87, NUGC4 or PANC-1 cells; also called CHO-CLDN18.2
Test: FACS on CHO-CLDN18.2 cells
Parameter: EC50. Scope: all listed entries.

{"binder": "413H9F8-H1L1 (antibody, V domains shown, humanized IgG; constant regions not specified) VH: EVQLVESGGGLVQPGGSLRLSCAASGFTFSSFGMHWVRQAPGKGLEWVSYISSGSSPIYYVDKLKGRFTISRDNAKNSLYLQMNSLRAEDTAVYYCARAGYAVRNALDYWGQGTLVTVSS VL: DIVMTQSPDSLAVSLGERATINCKSSQSLLNVGNQKNYLAWYQQKPGQPPKLLIYGASTRESGVPDRFSGSGSGTDFTLTISSLQAEDVAVYYCQNDLFYPLTFGGGTKVEIK", "EC50": "2.31 nM"}
{"binder": "413H9F8-H3L2 (antibody, V domains shown, humanized IgG; constant regions not specified) VH: EVQLVESGGGLVQPGGSLRLSCAASGFTFSSFGMHWVRQAPGKGLEWVAYISSGSSPIYYVDKLKGRFTVSRDNAKNSLYLQMNSLRAEDTAVYYCARAGYAVRNALDYWGQGTLVTVSS VL: DIVMTQSPDSLAVSLGERATINCKSSQSLLNVGNQKNYLAWYQQKPGQPPKLLIYGASTRESGVPDRFSGSGSGTDFTLTISSLQAEDVAVYFCQNDLFYPLTFGGGTKVEIK", "EC50": "2.14 nM"}

Source of measurements: patent US20210380680A1
